// merged dataset of IC50 values, system = CK1δ (Homo sapiens (Human)), multiple refs
Mark 1 for IC50 under 10 nM, -1 if at or over.

Input Cc1nc(-c2cccnc2)sc1C(=O)Nc1cn2nc(-c3c(-c4ccc(F)cc4)ncn3C3CN(C)C3)ccc2n1 ; condition: IC50 strictly below 10 nM. Does it hold?
1

Input Cc1cc(C)c(-c2cccnc2)cc1C(=O)Nc1cn2nc(-c3c(-c4ccc(F)cc4)nc(C)n3C)ccc2n1 ; condition: IC50 strictly below 10 nM. Does it hold?
1

Input NC1=N/C(=C2/CCNC(=O)c3[nH]c4ccccc4c32)C(=O)N1 ; condition: IC50 strictly below 10 nM. Does it hold?
-1

Input Cn1cc(-c2ccc3nc(NC(=O)CC(F)(F)F)cn3n2)c(-c2ccc(F)cc2)n1 ; condition: IC50 strictly below 10 nM. Does it hold?
-1

Input CN1CCC(n2cnc(-c3ccc(F)cc3)c2-c2ccc3nc(NC(=O)c4ccnc(F)c4)cn3n2)CC1 ; condition: IC50 strictly below 10 nM. Does it hold?
1

Input CC(C)(C)C(=O)Nc1cn2nc(-c3c(-c4ccc(F)cc4)ncn3Cc3ccoc3)ccc2n1 ; condition: IC50 strictly below 10 nM. Does it hold?
1

Input Cn1cc(-c2ccc3nc(NC(=O)c4ccc(C(F)(F)F)cn4)cn3n2)c(-c2ccc(F)cc2)n1 ; condition: IC50 strictly below 10 nM. Does it hold?
-1

Input O=C(Nc1cn2nc(-c3c(-c4ccc(F)cc4)ncn3C3CC3)ccc2n1)c1ccnc(F)c1 ; condition: IC50 strictly below 10 nM. Does it hold?
1

====

// merged dataset of pIC50 values, system = CK1δ (Homo sapiens (Human)), multiple refs
Just so you know, pIC50 here is -log10 of the concentration in molar units; reply with that number alone.

// fetch pIC50 given entry Cc1nc(-c2ccc(F)cc2)c(-c2ccc3nc(NC(=O)c4ccnc(F)c4)c(Br)n3n2)n1C
8.79

// fetch pIC50 given entry Cc1nc(-c2ccc(F)cc2)c(-c2ccc3nc(NC(=O)c4cncs4)cn3n2)n1C
8.41

// fetch pIC50 given entry Cn1nc(-c2ccc(F)cc2)c(-c2ccc3nc(NC(=O)c4ccncc4)cn3n2)c1N1CCN(C(=O)c2ccon2)CC1
9.00

// fetch pIC50 given entry NC(=O)CN1CCC(n2cnc(-c3ccc(F)cc3)c2-c2ccc3nc(NC(=O)c4cc(F)nc(F)c4)cn3n2)CC1
9.84

// fetch pIC50 given entry O=C(Nc1cn2nc(-c3c(-c4ccc(F)cc4)ncn3C3CCN(Cc4cocn4)CC3)ccc2n1)c1ccnc(F)c1
8.67

// fetch pIC50 given entry O=C(Nc1cn2nc(-c3c(-c4ccc(F)cc4)nn4c3COCC4)ccc2n1)c1ccnc(F)c1
9.40

// fetch pIC50 given entry O=C(Nc1cn2nc(-c3c(-c4ccc(F)cc4)nc4n3CCCC4)ccc2n1)c1ccnc(F)c1
9.10

// fetch pIC50 given entry Cc1nc(-c2cccnc2)sc1C(=O)Nc1cn2nc(-c3cn(C4CC4)nc3-c3ccc(F)cc3)ccc2n1
8.60

// fetch pIC50 given entry O=C(Nc1cn2nc(-c3c(-c4ccc(F)cc4)ncn3CCCn3ccnc3)ccc2n1)c1ccnc(F)c1
9.36

// fetch pIC50 given entry Cn1nc(-c2ccc(F)cc2)c(-c2ccc3nc(NC(=O)c4ccncc4)cn3n2)c1C1CCN(Cc2cscn2)CC1
8.44

// fetch pIC50 given entry Cn1cc(-c2ccc3nc(NC(=O)C4CCCC4)cn3n2)c(-c2ccc(F)cc2)n1
8.25

// fetch pIC50 given entry O=C(Nc1cn2nc(-c3c(-c4ccc(F)cc4)nn4c3CN(C3CCC3)CC4)ccc2n1)c1ccnc(F)c1
9.40

// fetch pIC50 given entry Fc1ccc(-c2[nH]cnc2-c2ccc3c(c2)COC3)nc1
7.32

// fetch pIC50 given entry Cc1nc(-c2ccncc2)sc1C(=O)Nc1cn2nc(-c3c(-c4ccc(F)cc4)nn(C)c3C3CCN(C)CC3)ccc2n1
8.68

// fetch pIC50 given entry Cn1cc(-c2ccc3nc(NC(=O)Nc4ccccc4)cn3n2)c(-c2ccc(F)cc2)n1
7.84

====

// merged dataset of log10 IC50 values, system = CK1δ (Homo sapiens (Human), UniProt P48730), multiple refs
Sequence (P48730 whole entry): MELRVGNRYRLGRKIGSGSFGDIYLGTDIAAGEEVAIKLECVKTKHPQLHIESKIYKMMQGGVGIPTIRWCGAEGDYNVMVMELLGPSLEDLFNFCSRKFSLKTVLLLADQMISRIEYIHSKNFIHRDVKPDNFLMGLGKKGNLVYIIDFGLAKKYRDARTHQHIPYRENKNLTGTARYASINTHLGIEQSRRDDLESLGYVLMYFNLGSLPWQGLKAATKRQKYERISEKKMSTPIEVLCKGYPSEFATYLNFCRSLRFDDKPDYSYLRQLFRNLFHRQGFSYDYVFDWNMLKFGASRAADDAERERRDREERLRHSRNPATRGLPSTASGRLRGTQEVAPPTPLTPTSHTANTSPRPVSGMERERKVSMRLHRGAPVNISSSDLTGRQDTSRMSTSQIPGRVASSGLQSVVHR
Scale: log10; quantity: IC50; unit before log: nM

Give log10 IC50; test system CK1δ (Homo sapiens (Human), UniProt P48730); molecule COc1ncccc1C(=O)Nc1cn2nc(-c3cn(C)nc3-c3ccc(F)cc3)ccc2n1
1.03

Give log10 IC50; test system CK1δ (Homo sapiens (Human), UniProt P48730); molecule CC(C)(C(=O)N1CCn2c(nc(-c3ccc(F)cc3)c2-c2ccc3nc(NC(=O)c4ccnc(F)c4)cn3n2)C1)C(F)(F)F
-0.22

Give log10 IC50; test system CK1δ (Homo sapiens (Human), UniProt P48730); molecule O=C(Nc1cn2nc(-c3c(-c4ccc(F)cc4)ncn3C3CCN(C(=O)CC(F)(F)F)CC3)ccc2n1)c1ccncc1
-0.58

Give log10 IC50; test system CK1δ (Homo sapiens (Human), UniProt P48730); molecule O=C(Nc1cn2nc(-c3c(-c4ccc(F)cc4)ncn3C3CCN(Cc4ncco4)CC3)ccc2n1)c1ccnc(F)c1
-0.65

Give log10 IC50; test system CK1δ (Homo sapiens (Human), UniProt P48730); molecule O=C(Nc1cn2nc(-c3c(-c4ccc(F)cc4)nc(C4CC4)n3C3CCN(Cc4ccon4)CC3)ccc2n1)c1ccnc(F)c1
-0.52

Give log10 IC50; test system CK1δ (Homo sapiens (Human), UniProt P48730); molecule Cn1nc(-c2ccc(F)cc2)c(-c2ccc3nc(NC(=O)c4ccnc(F)c4)cn3n2)c1C1CCN(C(=O)c2ccon2)CC1
-0.52

Give log10 IC50; test system CK1δ (Homo sapiens (Human), UniProt P48730); molecule Cc1nc(-c2ccc(F)cc2)c(-c2ccc3nc(NC(=O)c4cc5c(F)cccc5[nH]4)cn3n2)n1C
0.12

Give log10 IC50; test system CK1δ (Homo sapiens (Human), UniProt P48730); molecule Cc1nc(-c2ccc(F)cc2)c(-c2ccc3nc(NC(=O)c4ccnc(F)c4)c(C)n3n2)n1C
0.06

Give log10 IC50; test system CK1δ (Homo sapiens (Human), UniProt P48730); molecule Cn1ccnc1CN1CCC(n2cnc(-c3ccc(F)cc3)c2-c2ccc3nc(NC(=O)c4ccnc(F)c4)cn3n2)CC1
-0.58

Give log10 IC50; test system CK1δ (Homo sapiens (Human), UniProt P48730); molecule CC1(NC(=O)N2CCn3nc(-c4ccc(F)cc4)c(-c4ccc5nc(NC(=O)c6ccnc(F)c6)cn5n4)c3C2)CC1
-0.05

Give log10 IC50; test system CK1δ (Homo sapiens (Human), UniProt P48730); molecule Cn1nccc1C(=O)Nc1cn2nc(-c3c(-c4ccc(F)cc4)nc4ccccn34)ccc2n1
0.20

Give log10 IC50; test system CK1δ (Homo sapiens (Human), UniProt P48730); molecule Cc1nc(-c2cccnc2)sc1C(=O)Nc1cn2nc(-c3c(-c4ccc(F)cc4)ncn3C3CCN(C(=O)CC(F)(F)F)CC3)ccc2n1
-0.61

Give log10 IC50; test system CK1δ (Homo sapiens (Human), UniProt P48730); molecule O=C(Nc1cn2nc(-c3c(-c4ccc(F)cc4)ncn3C3CCN(Cc4ccon4)CC3)ccc2n1)c1ccncc1
-0.51

Give log10 IC50; test system CK1δ (Homo sapiens (Human), UniProt P48730); molecule Cc1nc(-c2cccnc2)sc1C(=O)Nc1cn2nc(-c3c(-c4ccc(F)cc4)nn(C)c3C3CCNCC3)ccc2n1
0.40

====

// merged dataset of IC50 values, system = CK1δ (Homo sapiens (Human)), multiple refs
The reply should contain only the number, in nM.

Give IC50; test system CK1δ (Homo sapiens (Human)); compound Cn1cc(-c2ccc3nc(NC(=O)c4ccc(-n5cccn5)nc4)cn3n2)c(-c2ccc(F)cc2)n1
3.8

Give IC50; test system CK1δ (Homo sapiens (Human)); compound Cc1nc(-c2ccc(F)cc2)c(-c2ccc3nc(NC(=O)c4ccc5cnccc5c4)cn3n2)n1C
0.187

Give IC50; test system CK1δ (Homo sapiens (Human)); compound Cn1ccc(C(=O)Nc2cn3nc(-c4c(-c5ccc(F)cc5)nc5ccccn45)ccc3n2)n1
4.01

Give IC50; test system CK1δ (Homo sapiens (Human)); compound O=C(Nc1cn2nc(-c3c(-c4ccc(F)cc4)ncn3CCOCCO)ccc2n1)c1ccnc(F)c1
0.456

Give IC50; test system CK1δ (Homo sapiens (Human)); compound COCC(=O)N1CCC(n2cnc(-c3ccc(F)cc3)c2-c2ccc3nc(NC(=O)c4ccnc(F)c4)cn3n2)CC1
0.225

Give IC50; test system CK1δ (Homo sapiens (Human)); compound O=C(Nc1cn2nc(-c3c(-c4ccc(F)cc4)nn4c3CNCC4)ccc2n1)c1ccnc(F)c1
0.5

Give IC50; test system CK1δ (Homo sapiens (Human)); compound CCCn1cnc(-c2ccc(F)cc2)c1-c1ccc2nc(NC(=O)C(C)(C)C)cn2n1
0.257

Give IC50; test system CK1δ (Homo sapiens (Human)); compound Cn1cnc(Cn2cnc(-c3ccc(F)cc3)c2-c2ccc3nc(NC(=O)c4ccnc(F)c4)cn3n2)c1
1.15

Give IC50; test system CK1δ (Homo sapiens (Human)); compound Cn1cnc(-c2ccc(F)cc2)c1-c1ccc2nc(NC(=O)C(C)(C)C)cn2n1
0.545

Give IC50; test system CK1δ (Homo sapiens (Human)); compound O=C(Nc1cn2nc(-c3c(-c4ccc(F)cc4)nc4n3CCCC4)ccc2n1)c1cccc(-c2cccnc2)c1
0.4

Give IC50; test system CK1δ (Homo sapiens (Human)); compound Cn1nc(-c2ccc(F)cc2)c(-c2ccc3nc(NC(=O)c4ccncc4)cn3n2)c1C1CCN(Cc2cc[nH]n2)CC1
2.6

Give IC50; test system CK1δ (Homo sapiens (Human)); compound Cc1nc(C(=O)Nc2cn3nc(-c4c(-c5ccc(F)cc5)nc(C)n4C)ccc3n2)c[nH]1
2.19

Give IC50; test system CK1δ (Homo sapiens (Human)); compound Cn1cc(-c2ccc3nc(NC(=O)c4ccccc4)c(F)n3n2)c(-c2ccc(F)cc2)n1
5.6

Give IC50; test system CK1δ (Homo sapiens (Human)); compound O=C(Nc1cn2nc(-c3c(-c4ccc(F)cc4)ncn3C3CCN(C[C@H](O)C(F)(F)F)CC3)ccc2n1)c1cc(F)nc(F)c1
0.296

Give IC50; test system CK1δ (Homo sapiens (Human)); compound Cc1nc(-c2ccc(F)cc2)c(-c2ccc3nc(NC(=O)c4ccncn4)cn3n2)n1C
8.51

Give IC50; test system CK1δ (Homo sapiens (Human)); compound Cc1cc(C(=O)Nc2cn3nc(-c4c(-c5ccc(F)cc5)nc(C)n4C)ccc3n2)on1
0.569

Give IC50; test system CK1δ (Homo sapiens (Human)); compound Cn1cc(-c2ccc3nc(NC(=O)c4ncc(-c5ccccn5)s4)cn3n2)c(-c2ccc(F)cc2)n1
3.3

Give IC50; test system CK1δ (Homo sapiens (Human)); compound O=C(Nc1cn2nc(-c3c(-c4ccc(F)cc4)ncn3C3CCN(C(=O)c4ccno4)CC3)ccc2n1)c1ccnc(F)c1
0.22

Give IC50; test system CK1δ (Homo sapiens (Human)); compound Cc1oncc1C(=O)Nc1cn2nc(-c3c(-c4ccc(F)cc4)nc(C)n3C)ccc2n1
103

Give IC50; test system CK1δ (Homo sapiens (Human)); compound O=C(Nc1cn2nc(-c3c(-c4ccc(F)cc4)ncn3C3CCN(Cc4ncc[nH]4)CC3)ccc2n1)c1ccnc(F)c1
0.259

Give IC50; test system CK1δ (Homo sapiens (Human)); compound Cc1nc(-c2ccc(F)cc2)c(-c2ccc3nc(NC(=O)c4ccn(C)n4)cn3n2)n1C
1.42

Give IC50; test system CK1δ (Homo sapiens (Human)); compound COc1ccc(C(=O)Nc2cn3nc(-c4cn(C)nc4-c4ccc(F)cc4)ccc3n2)c(OC)n1
41

Give IC50; test system CK1δ (Homo sapiens (Human)); compound CN1CCC(n2cnc(-c3ccc(F)cc3)c2-c2ccc3nc(NC(=O)c4ccnc5ccccc45)cn3n2)CC1
0.65

Give IC50; test system CK1δ (Homo sapiens (Human)); compound Cc1nc(-c2cccnc2)sc1C(=O)Nc1cn2nc(-c3c(-c4ccc(F)cc4)ncn3C3CCN(CCC(F)(F)F)CC3)ccc2n1
0.268

Give IC50; test system CK1δ (Homo sapiens (Human)); compound O=C(Nc1cn2nc(-c3c(-c4ccc(F)cc4)ncn3CCN3CCOCC3)ccc2n1)c1cc(F)nc(F)c1
0.311

Give IC50; test system CK1δ (Homo sapiens (Human)); compound Cc1nc(-c2ccc(F)cc2)c(-c2ccc3nc(NC(=O)c4ccnc(F)c4)c(Cl)n3n2)n1C
2.25

Give IC50; test system CK1δ (Homo sapiens (Human)); compound Cn1cc(-c2ccnc3c2C(=O)OC3)c(-c2ccc(F)cc2)n1
33.1

Give IC50; test system CK1δ (Homo sapiens (Human)); compound O=C(Nc1cn2nc(-c3c(-c4ccc(F)cc4)nc4ccccn34)ccc2n1)c1ccc(-c2cc[nH]n2)cc1
0.743

Give IC50; test system CK1δ (Homo sapiens (Human)); compound Cc1nc(-c2ccc(F)cc2)c(-c2ccc3nc(NC(=O)c4cnc5ccccc5n4)cn3n2)n1C
1.03

Give IC50; test system CK1δ (Homo sapiens (Human)); compound O=C(Nc1cn2nc(-c3c(-c4ccc(F)cc4)nn4c3COCC4)ccc2n1)c1ccnc(-c2cccnc2)c1
0.2
